Consider the following molecules; for each one, report its IC50.
Biological target: USP7 (Homo sapiens, UniProt Q93009)
Sequence (Q93009 whole entry): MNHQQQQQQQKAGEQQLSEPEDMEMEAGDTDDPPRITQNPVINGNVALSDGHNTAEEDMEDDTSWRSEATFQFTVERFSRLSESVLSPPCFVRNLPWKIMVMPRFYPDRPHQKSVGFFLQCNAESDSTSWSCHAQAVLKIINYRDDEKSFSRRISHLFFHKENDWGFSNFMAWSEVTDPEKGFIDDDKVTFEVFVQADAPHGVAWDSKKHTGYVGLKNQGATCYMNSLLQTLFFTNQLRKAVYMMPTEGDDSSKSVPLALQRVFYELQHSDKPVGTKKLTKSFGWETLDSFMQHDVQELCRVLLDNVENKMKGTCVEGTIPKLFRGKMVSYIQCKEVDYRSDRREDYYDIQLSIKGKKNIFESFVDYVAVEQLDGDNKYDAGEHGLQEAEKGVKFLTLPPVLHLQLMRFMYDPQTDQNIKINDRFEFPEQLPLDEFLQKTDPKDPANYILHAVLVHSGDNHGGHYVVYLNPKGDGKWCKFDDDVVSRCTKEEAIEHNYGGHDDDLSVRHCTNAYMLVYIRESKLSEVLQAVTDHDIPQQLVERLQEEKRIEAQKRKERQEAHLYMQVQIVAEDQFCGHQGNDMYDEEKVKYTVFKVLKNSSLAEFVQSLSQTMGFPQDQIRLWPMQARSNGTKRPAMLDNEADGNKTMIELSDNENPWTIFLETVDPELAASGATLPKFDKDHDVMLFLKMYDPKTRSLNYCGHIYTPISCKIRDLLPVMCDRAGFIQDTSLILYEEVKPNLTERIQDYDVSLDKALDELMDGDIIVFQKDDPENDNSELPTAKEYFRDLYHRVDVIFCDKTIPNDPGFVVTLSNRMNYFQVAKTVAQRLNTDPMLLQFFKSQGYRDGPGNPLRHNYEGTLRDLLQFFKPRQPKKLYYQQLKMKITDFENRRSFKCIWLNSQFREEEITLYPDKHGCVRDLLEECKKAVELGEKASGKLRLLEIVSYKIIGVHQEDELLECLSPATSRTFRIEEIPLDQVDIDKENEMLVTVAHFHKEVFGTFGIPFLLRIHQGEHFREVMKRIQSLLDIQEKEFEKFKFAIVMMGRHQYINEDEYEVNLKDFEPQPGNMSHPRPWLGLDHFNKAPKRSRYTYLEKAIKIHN
Give bare numbers, in nM.

Sample records with IC50:
- Mol Smiles: "O=C1c2ccccc2-c2nn3c(C(F)(F)F)nnc3nc21"
  IC50 / nM: 226
- Mol Smiles: "CCCc1nnc2nc3c(nn12)-c1cc(OC)c(OC)cc1C3=O"
  IC50 / nM: 936
- Mol Smiles: "CC(C)c1nnc2nc3c(nn12)-c1ccccc1C3=O"
  IC50 / nM: 820

Lab note: next molecule to report on.
Q: Value lookup for IC50; key = COc1cc2c(cc1OC)-c1nn3c(C)nnc3nc1C2=O
A: 525
